target.entity: DNA repair nuclease/redox regulator APEX1 (Homo sapiens) (UniProt P27695)
Sequence (P27695 whole entry, looked up): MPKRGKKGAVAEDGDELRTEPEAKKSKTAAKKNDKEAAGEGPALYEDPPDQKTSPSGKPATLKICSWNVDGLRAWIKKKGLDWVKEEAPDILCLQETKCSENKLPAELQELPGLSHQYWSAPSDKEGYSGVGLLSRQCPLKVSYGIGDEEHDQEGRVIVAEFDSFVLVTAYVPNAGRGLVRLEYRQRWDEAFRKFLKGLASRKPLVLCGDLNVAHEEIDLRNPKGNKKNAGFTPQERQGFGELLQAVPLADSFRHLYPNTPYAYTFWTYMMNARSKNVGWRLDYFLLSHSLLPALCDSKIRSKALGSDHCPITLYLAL
experiment.summary: qHTS Validation Assay for Inhibitors of the Human Apurinic/apyrimidinic Endonuclease 1 (APE1) (AID 1705)
assay.setup: purified APE1 endonuclease activity, fluorescence, titration; series mostly up to 57.1 µM
Inconclusive results are not listed. Active and inactive are the calls of the source. The call rests on the fitted dose curve; in most records, active means well fitted inhibition curve with a large enough effect; inconclusive means small, poorly fitted or top-dose-only effect; inactive means flat fitted curve, though single readings scatter.
Classes used: active, inactive

compound	class.name
Fc1ccc(C(OCCCc2cnc[nH]2)c2ccc(F)cc2)cc1	inactive
CN1CCc2cccc3c2C1Cc1ccc(O)c(O)c1-3 (stereo not given)	inactive
NC(N)=NC(=O)c1nc(Cl)c(N2CCCCCC2)nc1N	inactive
CN(C)c1nc(N)c(C(=O)N=C(N)N)nc1Cl	inactive
O=c1[nH]c2cc([N+](=O)[O-])c([N+](=O)[O-])cc2[nH]c1=O	inactive
CC(C)NCC(O)COc1cccc2ccccc12 (stereo not given)	inactive
Oc1ccc(C2CNCc3sccc32)cc1O (stereo not given)	inactive
N#C/C(=C\c1ccc(O)c(O)c1)C(=O)c1ccc(O)c(O)c1	active
CCCCCCCCCCCCCCCCCC(=O)NCC(COP(=O)([O-])OCC[N+](C)(C)C)OCC (stereo not given)	inactive
COc1ccc(NC(=O)/C=C/c2ccc(Cl)cc2)cc1	inactive
